Attribution: ChEMBL document CHEMBL1201862

Test system: OVCAR-8
Test: NCI tumour cell line growth inhibition, 48 h
Active and inactive are the calls of the source. Rule as the data show it: active = GI50 up to about 1.1 µM and inactive = higher. Where a SMILES comes first, the peptide text is derived from it. The star is where a group is joined. Fmoc = O=C(OCC1c2ccccc2-c2ccccc21)*; OtBu = CC(C)(C)O*
READOUT KIND: GI50

Data point: CN(C)c1ccc(-c2[nH]c(=O)c3ccccc3[n+]2C)cc1 ; GI50 = > 100 µM (inactive)

Data point: CN(C)/C=N/c1ccc2[nH]c3ccccc3c2c1 ; GI50 = 37.7 µM (inactive)

Data point: CC(C)C(NC(=O)OCC1c2ccccc2-c2ccccc21)C(=O)NC(CCC(=O)OC(C)(C)C)C(=O)OC(C)(C)C (configuration not stated) (Fmoc-Val-Glu(OtBu)-OtBu; configuration not given here) ; GI50 = 23.9 µM (inactive)

Data point: c1ccc(-c2sc(-c3ccccc3)c3c2C2CCC3C2)cc1 ; GI50 = 32.9 µM (inactive)

Data point: CSc1nn(C)cc2nc(C)nc1-2 ; GI50 = > 100 µM (inactive)

Data point: CCCCCCCCCCCCCCCCOP(=O)(O)OCC(N)C(=O)O (configuration not stated) ; GI50 = 25.4 µM (inactive)

Data point: COC(=O)/C=C\n1nc(Br)c(=O)[nH]c1=O ; GI50 = > 100 µM (inactive)

Data point: COC(=O)N1CC(=O)C(C(=O)NC23CC4CC(CC(C4)C2)C3)C1 (configuration not stated) ; GI50 = 73.1 µM (inactive)

Data point: O=C(O)CCCSc1nc2ccccc2s1 ; GI50 = > 100 µM (inactive)

Data point: Cc1ccccc1-c1nc2c(N)nc(N)nc2nc1N ; GI50 = 14.1 µM (inactive)

Data point: Cc1[nH]c2ncn3ncnc3c2c1Cc1ccccc1 ; GI50 = > 100 µM (inactive)

Data point: c1cc(CSSCc2ccncc2)ccn1 ; GI50 = 21.7 µM (inactive)

----------
Tested on: SK-MEL-5
Test: NCI tumour cell line growth inhibition, 48 h
The source made the active and inactive calls. Rule as the data show it: active = GI50 up to about 1.1 µM and inactive = higher.
Consider the following compounds; for each one, report its GI50.

Simply: Cc1noc(C)c1C1=CCCCc2ccccc21 , SK-MEL-5, GI50 = 34.1 µM (inactive)

Simply: COc1ccc(CNc2nc(NCc3ccc(OC)c(OC)c3)nc(NC3CCCCC3)n2)cc1 , SK-MEL-5, GI50 = 0.716 µM (active)

Simply: c1csc(-c2ccc(-c3ccc(-c4ccc(-c5cccs5)s4)s3)s2)c1 , SK-MEL-5, GI50 = > 100 µM (inactive)

Simply: Oc1cc(-c2cccc(Cl)c2)nc2ncccc12 , SK-MEL-5, GI50 = 0.0387 µM (active)

Simply: CSc1ncnc2c1cnn2Cc1cn(CCCCO)nn1 , SK-MEL-5, GI50 = > 100 µM (inactive)

Simply: COc1cc(C2C(Cl)C(=O)N2NC(=O)c2ccccc2O)cc(OC)c1OC (stereo not given) , SK-MEL-5, GI50 = 5.07 µM (inactive)

Simply: O=C1CS(=O)(=O)C(c2cccc(Oc3ccccc3)c2)N1c1cc(Cl)ccc1Cl (stereo not given) , SK-MEL-5, GI50 = 15.8 µM (inactive)

Simply: COc1ccc2cc3[n+](cc2c1OC)CCc1cc2c(cc1-3)OCO2 [BERBERINE CHLORIDE] , SK-MEL-5, GI50 = 4.95 µM (inactive)

Simply: CSc1nc2c(=O)n(-c3ccccc3)c(=S)n(-c3ccccc3)c2s1 , SK-MEL-5, GI50 = > 100 µM (inactive)

Simply: O=C1C2C(C(=O)N1c1ccccc1)C1(c3ccccc3)OC2(c2ccccc2)c2ccccc21 (stereo not given) , SK-MEL-5, GI50 = 2.78 µM (inactive)

----------
Tested on: SR
Assay: NCI tumour cell line growth inhibition, 48 h
The source made the active and inactive calls. Cut-off read from the data, not from the text of the source: active = GI50 up to about 1.1 µM and inactive = higher.
READOUT KIND: GI50

Simply: Clc1cc2nc(C3CCCO3)[nH]c2cc1Cl (stereo unspecified) , SR, GI50 = 37.6 µM (inactive)

Simply: NCCCCNC1(c2cc3ccccc3s2)CCCCC1 , SR, GI50 = 1.49 µM (inactive)

Simply: O=C(NC(=O)c1c(F)cccc1F)Nc1cccc(Oc2ncc(Cl)cn2)c1 , SR, GI50 = 6.1 µM (inactive)

Simply: OB1OCc2ccccc21 [BENZOXABOROLE] , SR, GI50 = 52.7 µM (inactive)

Simply: CC1(C)O[C@@H](CP(c2ccc3ccccc3c2)c2ccc3ccccc3c2)[C@H](CP(c2ccc3ccccc3c2)c2ccc3ccccc3c2)O1 , SR, GI50 = 77.8 µM (inactive)

Simply: COC(=O)CC(C(C(C)=O)C(=O)OCc1ccccc1)N1C(=O)OCC1c1ccccc1 (stereo unspecified) , SR, GI50 = 74.5 µM (inactive)

Simply: O=C1OC(CN2CCN(c3ccccc3)CC2)CN1C(=S)Nc1ccccc1 (stereo unspecified) , SR, GI50 = > 100 µM (inactive)

Simply: [N-]=[N+]=NC(c1cn(C2CC(O)C(CO)O2)c(=O)[nH]c1=O)C(I)I (stereo unspecified) , SR, GI50 = > 100 µM (inactive)

Simply: Clc1ccc(CCn2cncn2)c(Cl)c1 , SR, GI50 = > 100 µM (inactive)

Simply: CC1(C)O[C@@H]2COC(=O)[C@@H]2O1 , SR, GI50 = > 100 µM (inactive)

Simply: Nc1nc(Cl)cc(NCC2(O)CC2)n1 , SR, GI50 = > 100 µM (inactive)

----------
System: SNB-75
Assay: NCI tumour cell line growth inhibition, 48 h
Active and inactive are the calls of the source. Rule as the data show it: active = GI50 up to about 1.1 µM and inactive = higher.
Choose one outcome from this list and give only that: t for active, f for inactive

In: Record lookup: outcome of this test for CCOC(=O)CCCSCCCC(=O)CCCSCCCC(=O)OCC ?
Out: f

In: Record lookup: outcome of this test for CC1(C)O[C@@H](CP(c2ccc3ccccc3c2)c2ccc3ccccc3c2)[C@H](CP(c2ccc3ccccc3c2)c2ccc3ccccc3c2)O1 ?
Out: f

In: Record lookup: outcome of this test for Cc1cccc2c(N)c3cccc(C(=O)NCC[N+](C)(C)[O-])c3nc12 ?
Out: f

In: Record lookup: outcome of this test for O=C(O)c1cc(CC2Cc3cc4c(cc3C2=O)CCC4)cc2c1CCC2 (configuration not stated) ?
Out: f

In: Record lookup: outcome of this test for COCn1c2ccc(OC(C)=O)cc2c2c(=O)oc(C)nc21 ?
Out: f

In: Record lookup: outcome of this test for CN(CCc1ccccn1)c1ccc2c(c1)Cc1ccccc1-2 ?
Out: f

In: Record lookup: outcome of this test for CCCCCc1cc2cc3c(c(O)c2c(=O)[nH]1)C1(CC3)C(=O)c2c(O)c3c(c(O)c2C1=O)C(=O)C(OC)=CC3=O (configuration not stated) ?
Out: f

In: Record lookup: outcome of this test for Clc1ccc(CCn2cncn2)c(Cl)c1 ?
Out: f

In: Record lookup: outcome of this test for CCN(CC)c1ccc(/C=C/C(=O)c2cc(C(C)(C)C)c(O)c(C(C)(C)C)c2)cc1 ?
Out: f

In: Record lookup: outcome of this test for O=CN1CCN(C(=O)c2ccco2)C1=S ?
Out: f

In: Record lookup: outcome of this test for CN(C)C(=S)OC(Cn1cncn1)c1ccc(Cl)cc1Cl (configuration not stated) ?
Out: f

In: Record lookup: outcome of this test for C[C@@H](NS(=O)(=O)c1ccc(NC(=O)c2ccccc2)cc1)C(=O)O ?
Out: f

In: Record lookup: outcome of this test for CCOC(=O)C1Oc2ccc([N+](=O)[O-])cc2C1(C)O (configuration not stated) ?
Out: f

In: Record lookup: outcome of this test for Cc1ccc2c(=O)[nH]sc2c1 ?
Out: f

In: Record lookup: outcome of this test for Clc1ccc(N/N=C(\c2ccccc2)c2ccccn2)nc1 ?
Out: t

In: Record lookup: outcome of this test for O=C(O)c1ccccc1SCc1cccc2c(=O)c3ccc(Cl)cc3oc12 ?
Out: f

In: Record lookup: outcome of this test for COC(=O)C12OCC34C(CC5C(C)C6=CC(=O)OC6=CC5(C)C3C(O)C1O)OC(=O)C(O)C24 (configuration not stated) ?
Out: t

In: Record lookup: outcome of this test for Cc1ccc(S(=O)(=O)NC(=O)NCC(=O)NCC(=O)O)cc1 ?
Out: f

In: Record lookup: outcome of this test for OCC1C2C=CC(O2)[C@H]1CO (some centres not stated) ?
Out: f

In: Record lookup: outcome of this test for O=C1C2C(C(=O)N1c1ccccc1)C1(c3ccccc3)OC2(c2ccccc2)c2ccccc21 (configuration not stated) ?
Out: f

In: Record lookup: outcome of this test for CC(C)c1ccc2c(c1)/C(=C1/Nc3ccccc3/C1=N/O)C(=O)N2 ?
Out: f

In: Record lookup: outcome of this test for CC1CC(C)CC(C)C(O)/C(C#N)=C/C=C/CC(C2CCCC2C(=O)O)OC(=O)CC(O)C(C)C1 (configuration not stated) ?
Out: t

In: Record lookup: outcome of this test for O=[N+]([O-])c1cccc2nc3ccccc3c(NCCC[N+]3([O-])CCOCC3)c12 ?
Out: t

In: Record lookup: outcome of this test for O=C1/C(=C/c2ccc([N+](=O)[O-])cc2)Oc2cc(O)ccc21 ?
Out: f

In: Record lookup: outcome of this test for COc1cc(C2c3cc4c(cc3[C@@H](Nc3cccc([N+](=O)[O-])c3)C3COC(=O)[C@H]23)OCO4)cc(OC)c1O (some centres not stated) ?
Out: f

In: Record lookup: outcome of this test for O=C(c1ccc(Cl)cc1)c1cnc(Nc2ccccc2Cl)s1 ?
Out: f

In: Record lookup: outcome of this test for CC1=CC(=O)[C@@H](O)[C@]2(C)[C@H]3[C@@]4(O)OC[C@@]35[C@@H](C[C@@H]12)OC(=O)C(OC(=O)CC1=CCCC1)[C@H]5[C@@H](C)[C@H]4O (some centres not stated) ?
Out: t

In: Record lookup: outcome of this test for COc1cc(C2C(Cl)C(=O)N2NC(=O)c2ccccc2O)cc(OC)c1OC (configuration not stated) ?
Out: f

In: Record lookup: outcome of this test for COc1ccccc1C1CC(=O)CC(c2ccccc2OC)C12C(=O)NC(=S)NC2=O (configuration not stated) ?
Out: f

In: Record lookup: outcome of this test for CCOC(=O)C(O)Cc1cnc2ccccc2n1 (configuration not stated) ?
Out: f

In: Record lookup: outcome of this test for CC(C)(CN1CCCCC1)C(/C=C/c1ccc(Cl)cc1)=N\NC(=O)N/N=C(/C=C/c1ccc(Cl)cc1)C(C)(C)CN1CCCCC1 ?
Out: f

In: Record lookup: outcome of this test for O=c1[nH]c2c(nc1NC13CC4CC(CC(C4)C1)C3)c(=O)oc1ccccc12 ?
Out: f

In: Record lookup: outcome of this test for CCCCCCCCCCCCOP(=O)(O)OCC(N)C(=O)O (configuration not stated) ?
Out: f

In: Record lookup: outcome of this test for COc1cc(/C=C(\C)[N+](=O)[O-])cc(OC)c1 ?
Out: f

In: Record lookup: outcome of this test for O=S1(=O)c2ccccc2N=C(c2ccccc2Cl)CC1c1ccc(F)cc1 (configuration not stated) ?
Out: f

In: Record lookup: outcome of this test for N#CC(C#N)C1CN2CCC1CC2 (configuration not stated) ?
Out: f

In: Record lookup: outcome of this test for Cc1ccc(N/N=C/C2=CC(C)(C)C(C#N)(C#N)C(O)=C2C#N)cc1 ?
Out: f

In: Record lookup: outcome of this test for Cc1ccccc1-c1nc2c(N)nc(N)nc2nc1N ?
Out: f

In: Record lookup: outcome of this test for Cc1cccc(C)c1NC(=O)C(=O)Cc1nc2ccccc2s1 ?
Out: f

In: Record lookup: outcome of this test for CN(C)CCNC(=O)c1ccc(Cl)c2ccc(-c3ccccc3)nc12 ?
Out: f

In: Record lookup: outcome of this test for O=C(O)C1CCCCN1CCc1c[nH]c2ccccc12 (configuration not stated) ?
Out: f

In: Record lookup: outcome of this test for O=C1C=CC2(C=C1)O[C@H](CCc1ccccc1)[C@@H](CCc1ccccc1)O2 ?
Out: f
